Recorded values, source ChEMBL document CHEMBL4304834.

For each record, write down the corresponding Ki.
# systemUnderTest: Alpha-2C adrenergic receptor (Homo sapiens)
# Sequence (P18825 whole entry): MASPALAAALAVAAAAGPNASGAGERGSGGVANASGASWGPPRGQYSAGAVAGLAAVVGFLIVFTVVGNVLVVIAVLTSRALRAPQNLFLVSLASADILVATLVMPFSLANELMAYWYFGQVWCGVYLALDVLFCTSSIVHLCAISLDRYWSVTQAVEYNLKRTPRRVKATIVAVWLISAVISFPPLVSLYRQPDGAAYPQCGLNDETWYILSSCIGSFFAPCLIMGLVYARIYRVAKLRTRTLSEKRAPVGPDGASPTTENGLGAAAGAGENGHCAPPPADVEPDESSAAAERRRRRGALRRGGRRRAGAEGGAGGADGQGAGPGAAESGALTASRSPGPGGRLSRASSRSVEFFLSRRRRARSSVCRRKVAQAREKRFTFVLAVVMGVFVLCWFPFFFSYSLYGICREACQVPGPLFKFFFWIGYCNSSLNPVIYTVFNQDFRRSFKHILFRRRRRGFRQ
# assayOverview: Displacement of [3H]-Rauwolscine from human recombinant adrenergic Alpha2C receptor expressed in stable MDCK cells after 90 mins by microbeta scintillation counting method

Please review the following examples before continuing.
> print(dat)
                                   compound  parametermeasured  testresult
1  CC[C@H]1c2ccccc2N(c2ccccc2)C[C@@]1(C)N (racemic)                 Ki     > 10 µM
2  COc1cc(OC)c2c(c1)OC[C@@]1(C)NCC[C@@H]21 (racemic)                 Ki     > 10 µM
3  CC[C@H]1c2cc(OC)ccc2CC[C@@]1(C)N (racemic)                 Ki     > 10 µM

Record Ki per entry; entries follow.
1. CC[C@H]1c2cc(C)ccc2OC[C@@]1(C)N (racemic)
2. C[C@@]12CN(c3ccccc3)c3ccccc3[C@@H]1CCN2 (racemic)

Result string:
1. > 10 µM
2. 1 µM
